IC50 values for the compounds below.
- Target Under Test: TYK2 (Homo sapiens)
- Sequence (P29597 whole entry): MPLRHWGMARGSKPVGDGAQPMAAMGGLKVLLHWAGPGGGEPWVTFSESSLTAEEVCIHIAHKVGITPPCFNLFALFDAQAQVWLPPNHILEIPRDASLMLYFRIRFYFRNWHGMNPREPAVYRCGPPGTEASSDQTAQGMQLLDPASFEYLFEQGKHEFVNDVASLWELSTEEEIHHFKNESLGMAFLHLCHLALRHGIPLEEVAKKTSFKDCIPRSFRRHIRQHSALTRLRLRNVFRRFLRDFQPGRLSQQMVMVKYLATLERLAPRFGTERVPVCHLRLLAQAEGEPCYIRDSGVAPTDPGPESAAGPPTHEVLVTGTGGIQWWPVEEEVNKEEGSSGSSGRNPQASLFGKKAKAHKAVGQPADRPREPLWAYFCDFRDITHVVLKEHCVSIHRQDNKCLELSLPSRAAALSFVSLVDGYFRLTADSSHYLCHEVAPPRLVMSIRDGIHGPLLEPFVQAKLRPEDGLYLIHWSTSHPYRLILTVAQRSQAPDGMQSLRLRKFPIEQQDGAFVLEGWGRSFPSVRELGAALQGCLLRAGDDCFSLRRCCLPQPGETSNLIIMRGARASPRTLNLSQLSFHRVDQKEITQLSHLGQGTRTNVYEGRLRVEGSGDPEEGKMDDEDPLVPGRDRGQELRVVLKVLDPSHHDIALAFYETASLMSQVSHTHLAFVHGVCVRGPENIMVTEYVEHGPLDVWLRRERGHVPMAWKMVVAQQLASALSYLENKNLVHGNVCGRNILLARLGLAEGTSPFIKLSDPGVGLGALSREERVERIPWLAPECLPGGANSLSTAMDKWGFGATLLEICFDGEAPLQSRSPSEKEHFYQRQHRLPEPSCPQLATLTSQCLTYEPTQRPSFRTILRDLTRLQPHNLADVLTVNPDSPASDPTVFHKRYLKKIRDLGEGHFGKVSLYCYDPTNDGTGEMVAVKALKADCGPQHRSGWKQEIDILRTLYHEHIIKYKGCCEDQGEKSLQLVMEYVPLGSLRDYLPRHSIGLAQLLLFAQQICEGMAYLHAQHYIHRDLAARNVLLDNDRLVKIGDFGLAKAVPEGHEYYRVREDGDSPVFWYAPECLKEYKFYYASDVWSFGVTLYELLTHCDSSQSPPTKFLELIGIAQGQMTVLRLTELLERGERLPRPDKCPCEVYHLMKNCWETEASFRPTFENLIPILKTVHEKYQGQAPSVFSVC
- Experimental Protocol: TYK2 kinase inhibition (Table A1)
- Type: biochemical
- Assay Conditions: Table B1
Structures can show the parent of a compound that is named as a salt.
Give just the numeric value; nM need not be written.

These solved cases illustrate the format of a correct answer.
- O=C(Nc1ccc2cc1CCc1cncc(c1)Nc1ncc(Cl)c(n1)N2)N[C@H]1CCN(C(=O)c2ccno2)C1 [Example B271, bis(trifluoroacetate)]: 847
- O=C(Nc1ccc2cc1CCc1cccc(c1)Nc1ncc(Cl)c(n1)N2)N[C@H]1CCN(C(=O)c2cccnc2)C1 [Example B171, bis(trifluoroacetate)]: 30
- Cc1cccc(NC(=O)Nc2ccc3cc2CCc2cccc(c2)Nc2ncc(Cl)c(n2)N3)c1 [Example B90, trifluoroacetate]: 20

Lab note: next compound to report on.
Indicate the recorded IC50 value for this compound: O=C(NCCN1CCCC1)Nc1ccc2cc1CCc1cccc(c1)Nc1ncc(Cl)c(n1)N2 [Example B255, bis(trifluoroacetate)]
25

* * *

IC50 values for the compounds below.
- Target Under Test: human JAK1 (a.a. 837-1142) (Homo sapiens)
- Construct: human JAK1 (a.a. 837-1142); His tag (N); made in house; host or cells: insect cells (baculovirus)
- Sequence (P23458 849-1154): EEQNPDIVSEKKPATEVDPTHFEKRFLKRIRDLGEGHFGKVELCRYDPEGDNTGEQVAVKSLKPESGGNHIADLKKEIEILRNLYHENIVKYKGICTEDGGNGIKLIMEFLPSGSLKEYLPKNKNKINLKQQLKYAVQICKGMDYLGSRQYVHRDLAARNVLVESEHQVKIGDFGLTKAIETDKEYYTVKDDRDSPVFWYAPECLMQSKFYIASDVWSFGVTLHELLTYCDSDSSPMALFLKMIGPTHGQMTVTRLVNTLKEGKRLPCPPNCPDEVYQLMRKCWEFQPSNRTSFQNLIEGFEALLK
- Experimental Protocol: In vitro JAK kinase assay (HTRF, phosphorylation of a biotinylated peptide), JAK1
- Assay type: biochemical
- Assay Conditions: method AA1 (90 μM ATP) or AA2 (1000 μM ATP), not stated per value; read-out: JAK1 IC50
Counter-ions that a name gives are not always drawn.
Give just the numeric value; nM need not be written.

These solved cases illustrate the format of a correct answer.
- CCS(=O)(=O)N1CCC(CC(=O)Nc2ccc3cc2CCc2cccc(c2)Nc2ncc(Cl)c(n2)N3)CC1 [Example A83, trifluoroacetate]: 1.9
- O=C(CC1CCN(c2ccccc2)CC1)Nc1ccc2cc1CCc1cncc(c1)Nc1ncc(Cl)c(n1)N2 [Example A219, tris(trifluoroacetate)]: 12

Lab note: next compound to report on.
Indicate the recorded IC50 value for this compound: CN(C)S(=O)(=O)N1CCC(CC(=O)Nc2ccc3cc2CCc2cccc(c2)Nc2ncc(Cl)c(n2)N3)CC1 [Example A81, trifluoroacetate]
4.7

* * *

ALK % of inhibition at a concentration of 500 nM or 1 mM values for the compounds below.
- Target Under Test: Recombinant Human Anaplastic Lymphoma Kinase (Homo sapiens, UniProt Q9UM73)
- Construct: purchased Invitrogen, Carlsbad, Calif
- Sequence (Q9UM73 19-1620): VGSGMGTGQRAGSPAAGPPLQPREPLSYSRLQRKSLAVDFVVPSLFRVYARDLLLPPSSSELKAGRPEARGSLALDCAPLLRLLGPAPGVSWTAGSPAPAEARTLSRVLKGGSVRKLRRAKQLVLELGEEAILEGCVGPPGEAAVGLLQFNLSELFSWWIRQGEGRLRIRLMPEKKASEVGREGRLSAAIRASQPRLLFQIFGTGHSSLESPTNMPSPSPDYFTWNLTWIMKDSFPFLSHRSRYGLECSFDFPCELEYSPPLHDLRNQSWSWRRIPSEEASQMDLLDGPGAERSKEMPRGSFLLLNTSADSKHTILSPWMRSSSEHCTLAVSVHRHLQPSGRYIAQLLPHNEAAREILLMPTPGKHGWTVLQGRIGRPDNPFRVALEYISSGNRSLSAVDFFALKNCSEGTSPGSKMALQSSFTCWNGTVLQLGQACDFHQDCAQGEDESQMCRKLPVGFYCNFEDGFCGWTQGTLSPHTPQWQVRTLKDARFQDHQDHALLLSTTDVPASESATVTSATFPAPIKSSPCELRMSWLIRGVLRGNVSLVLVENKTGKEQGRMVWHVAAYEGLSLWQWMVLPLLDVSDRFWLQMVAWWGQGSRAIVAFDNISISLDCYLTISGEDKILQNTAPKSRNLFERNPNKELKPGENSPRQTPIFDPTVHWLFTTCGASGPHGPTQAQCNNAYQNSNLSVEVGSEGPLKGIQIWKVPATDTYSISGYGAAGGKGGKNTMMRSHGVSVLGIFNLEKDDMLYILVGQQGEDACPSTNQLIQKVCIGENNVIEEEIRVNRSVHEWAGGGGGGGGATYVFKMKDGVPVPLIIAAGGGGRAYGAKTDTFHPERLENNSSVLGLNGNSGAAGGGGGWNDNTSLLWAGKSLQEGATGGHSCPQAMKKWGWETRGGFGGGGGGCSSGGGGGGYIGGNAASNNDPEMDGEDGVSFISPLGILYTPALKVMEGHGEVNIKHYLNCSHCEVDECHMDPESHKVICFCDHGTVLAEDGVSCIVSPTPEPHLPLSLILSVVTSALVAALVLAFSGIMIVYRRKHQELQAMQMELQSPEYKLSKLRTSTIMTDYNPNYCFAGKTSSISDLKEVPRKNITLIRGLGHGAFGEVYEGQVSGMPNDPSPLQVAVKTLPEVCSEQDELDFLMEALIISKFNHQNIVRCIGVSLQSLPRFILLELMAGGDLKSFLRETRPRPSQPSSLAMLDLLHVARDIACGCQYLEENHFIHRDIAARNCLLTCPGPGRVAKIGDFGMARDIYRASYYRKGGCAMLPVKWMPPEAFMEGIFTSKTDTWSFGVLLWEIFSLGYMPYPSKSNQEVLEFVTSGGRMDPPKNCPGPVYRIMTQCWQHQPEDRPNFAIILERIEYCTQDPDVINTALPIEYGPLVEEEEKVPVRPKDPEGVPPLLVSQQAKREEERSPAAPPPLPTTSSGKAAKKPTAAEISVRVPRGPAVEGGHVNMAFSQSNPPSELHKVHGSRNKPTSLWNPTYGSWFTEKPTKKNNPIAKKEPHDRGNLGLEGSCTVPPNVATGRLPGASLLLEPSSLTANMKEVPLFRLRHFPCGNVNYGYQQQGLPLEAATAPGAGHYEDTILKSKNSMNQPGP
- Experimental Protocol: ALK HTRF kinase assay
- Assay type: biochemical
- Assay Conditions: compound at a concentration of 500 nM or 1 mM (not specified); cells shown as percentage
Structures can show the parent of a compound that is named as a salt.
Give just the numeric value; % need not be written.

• O=C(Nc1ccc2cc1CCc1cncc(c1)Nc1ncc(Cl)c(n1)N2)N1CCN(c2ccccn2)CC1 [Example B289, tris(trifluoroacetate)] = 65
• CCOc1ccccc1NC(=O)Nc1ccc2cc1CCc1cccc(c1)Nc1ncc(Cl)c(n1)N2 [Example B106, trifluoroacetate] = 5.7

Indicate the recorded ALK % of inhibition at a concentration of 500 nM or 1 mM value for this compound: Clc1cnc2nc1Nc1ccc(Nc3nccc(-c4ccccc4)n3)c(c1)CCc1cccc(c1)N2 [Example B279, tris(trifluoroacetate)]
0.76

* * *

- Target Under Test: human JAK3 (a.a. 781-1124) (Homo sapiens, UniProt P52333)
- Construct: JAK3 (a.a. 781-1124); His tag (N); made in house; host or cells: insect cells (baculovirus)
- Sequence (P52333 781-1124): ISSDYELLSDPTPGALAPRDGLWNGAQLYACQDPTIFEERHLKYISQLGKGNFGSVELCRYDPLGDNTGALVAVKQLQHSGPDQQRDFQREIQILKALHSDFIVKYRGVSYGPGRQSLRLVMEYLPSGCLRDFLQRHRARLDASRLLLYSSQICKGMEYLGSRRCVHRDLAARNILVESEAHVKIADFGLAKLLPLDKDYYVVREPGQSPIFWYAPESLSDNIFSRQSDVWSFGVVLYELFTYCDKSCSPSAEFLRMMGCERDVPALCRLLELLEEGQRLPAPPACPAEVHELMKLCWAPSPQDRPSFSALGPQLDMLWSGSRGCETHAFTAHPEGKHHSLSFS
- Experimental Protocol: In vitro JAK kinase assay (HTRF, phosphorylation of a biotinylated peptide), JAK3
- Format: biochemical
- Assay Conditions: Table D1
pIC50: −log10 of the molar value.
Property Label: pIC50

• O=C(Nc1cccc(N2CCOCC2)n1)N1CCC(CCOc2ccc3cc2CCc2cncc(c2)Nc2ncc(Cl)c(n2)N3)CC1 [Example D176, tris(trifluoroacetate)] = < 6.40
• O=C(CC1CN(c2nncs2)C1)Nc1ccc2cc1CCc1cncc(c1)Nc1ncc(Cl)c(n1)N2 [Example D151, tris(trifluoroacetate)] = < 6.70
• Cc1cc(C(=O)N2CCN(C(=O)COc3ccc4cc3CCc3cncc(c3)Nc3ncc(Cl)c(n3)N4)CC2)n[nH]1 [Example D266, tris(trifluoroacetate)] = < 6.40
• O=C(COc1ccc2cc1CCc1cncc(c1)Nc1ncc(Cl)c(n1)N2)N1CCN(C(=O)C2CCOC2)CC1 (stereo not drawn) [Example D271, bis(trifluoroacetate)] = < 6.40
• N#Cc1ccc(N2CCN(C(=O)COc3ccc4cc3CCc3cncc(c3)Nc3ncc(Cl)c(n3)N4)CC2)cc1 [Example D236, tris(trifluoroacetate)] = < 6.40

Lab note: next compound to report on.
Indicate the recorded pIC50 value for this compound: O=C(Nc1ccsc1)N1CCC(CCOc2ccc3cc2CCc2cncc(c2)Nc2ncc(Cl)c(n2)N3)CC1 [Example D166, bis(trifluoroacetate)]
< 6.40

* * *

- Target Under Test: Recombinant Human Anaplastic Lymphoma Kinase (Homo sapiens, UniProt Q9UM73)
- Construct: purchased Invitrogen, Carlsbad, Calif
- Experimental Protocol: ALK HTRF kinase assay
- Format: biochemical
- Assay Conditions: Table B1; cells without percent sign
Counter-ions that a name gives are not always drawn.
Property Label: IC50

- Cc1noc(C)c1NC(=O)Nc1ccc2cc1CCc1cccc(c1)Nc1ncc(Cl)c(n1)N2 [Example B94, trifluoroacetate]: > 1 µM

Indicate the recorded IC50 value for this compound: Cc1cnc2nc1Nc1cccc(c1)CCc1cccc(c1)N2 [Example B2, trifluoroacetate]
> 1 µM

Indicate the recorded IC50 value for this compound: N#Cc1ccccc1S(=O)(=O)Nc1ccc2cc1CCc1cccc(c1)Nc1ncc(Cl)c(n1)N2 [Example B155, trifluoroacetate]
> 1 µM

Indicate the recorded IC50 value for this compound: O=C(Nc1ccc(N2CCOCC2)cc1)c1cc2cc(c1)Nc1nc(ncc1Cl)Nc1cccc(c1)CC2 [Example B9, trifluoroacetate]
> 1 µM

Indicate the recorded IC50 value for this compound: Cc1ncoc1C(=O)Nc1cc2cc(c1)Nc1nc(ncc1Cl)Nc1cccc(c1)CC2 [Example B210, trifluoroacetate]
> 1 µM

Indicate the recorded IC50 value for this compound: O=C(Nc1cc2cc(c1)Nc1nc(ncc1Cl)Nc1cccc(c1)CC2)c1nc2ccccc2s1 [Example B204, trifluoroacetate]
> 10 µM

Indicate the recorded IC50 value for this compound: O=S(=O)(c1ccc(Cl)cc1)c1ccc(CN2CCN(Cc3cc4cc(c3)Nc3nc(ncc3Cl)Nc3cccc(c3)CC4)CC2)cc1 [Example B195, tris(trifluoroacetate)]
> 10 µM

* * *

- Target Under Test: human JAK2 (a.a. 828-1132) (Homo sapiens)
- Construct: JAK2 (a.a. 828-1132); His tag (N); made in house; host or cells: insect cells (baculovirus)
- Sequence (O60674 828-1132): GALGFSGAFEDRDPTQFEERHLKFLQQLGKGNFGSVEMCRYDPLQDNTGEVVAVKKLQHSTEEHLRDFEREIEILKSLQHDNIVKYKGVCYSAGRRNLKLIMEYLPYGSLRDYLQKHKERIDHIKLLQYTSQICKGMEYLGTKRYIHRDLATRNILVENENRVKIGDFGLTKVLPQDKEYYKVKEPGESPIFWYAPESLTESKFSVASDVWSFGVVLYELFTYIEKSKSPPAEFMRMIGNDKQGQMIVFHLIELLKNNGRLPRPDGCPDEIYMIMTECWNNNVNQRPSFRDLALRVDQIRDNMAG
- Experimental Protocol: In vitro JAK kinase assay (HTRF, phosphorylation of a biotinylated peptide), JAK2
- Type: biochemical
- Assay Conditions: Table B1
Structures can show the parent of a compound that is named as a salt.
Property Label: pIC50
On this scale, pIC50 is minus log10 of a concentration expressed in M (mol/L).

- CN(Cc1ccc2cc1CCc1cncc(c1)Nc1ncc(Cl)c(n1)N2)C(=O)C1CCN(C(=O)Nc2ccccc2)CC1 [Example B337, bis(trifluoroacetate)]: 6.77
- CS(=O)(=O)N1CC[C@@H](NC(=O)Nc2ccc3cc2CCc2cccc(c2)Nc2ncc(Cl)c(n2)N3)C1 [Example B178, trifluoroacetate]: 8.96
- COc1ccccc1NC(=O)Nc1ccc2cc1CCc1cccc(c1)Nc1ncc(Cl)c(n1)N2 [Example B102, trifluoroacetate]: 8.42
- CC(C)S(=O)(=O)Nc1ccc2cc1CCc1cccc(c1)Nc1ncc(Cl)c(n1)N2 [Example B143, trifluoroacetate]: 8.55
- O=S(=O)(Nc1ccc2cc1CCc1cccc(c1)Nc1ncc(Cl)c(n1)N2)c1ccccc1 [Example B136, trifluoroacetate]: 10.00
- O=S(=O)(Nc1ccc2cc1CCc1cccc(c1)Nc1ncc(Cl)c(n1)N2)C1CC1 [Example B158, trifluoroacetate]: 9.82
- O=C(Nc1ccsc1)Nc1ccc2cc1CCc1cccc(c1)Nc1ncc(Cl)c(n1)N2 [Example B89, trifluoroacetate]: 8.54
- O=C(Nc1ccc2cc1CCc1cccc(c1)Nc1ncc(Cl)c(n1)N2)c1ccco1 [Example B33, trifluoroacetate]: 8.59
- O=C(Nc1ccc2cc1CCc1cccc(c1)Nc1ncc(Cl)c(n1)N2)N[C@H]1CCN(C(=O)c2nccs2)C1 [Example B231, trifluoroacetate]: 8.26
- O=C(Nc1ccc2cc1CCc1cccc(c1)Nc1ncc(Cl)c(n1)N2)N[C@H]1CCNC1 [Example B167, bis(trifluoroacetate)]: 7.92

Indicate the recorded pIC50 value for this compound: CCCS(=O)(=O)Nc1ccc2cc1CCc1cccc(c1)Nc1ncc(Cl)c(n1)N2 [Example B142, trifluoroacetate]
9.51

* * *

pIC50 values for the compounds below.
- Target Under Test: human JAK3 (a.a. 781-1124) (Homo sapiens)
- Construct: JAK3 (a.a. 781-1124); His tag (N); made in house; host or cells: insect cells (baculovirus)
- Experimental Protocol: In vitro JAK kinase assay (HTRF, phosphorylation of a biotinylated peptide), JAK3
- Type: biochemical
- Assay Conditions: method AA1 (3 μM ATP) or AA2 (1000 μM ATP), not stated per value
pIC50: −log10 of the molar value.

These solved cases illustrate the format of a correct answer.
* N#CCC(=O)N1CCC(CC(=O)Nc2ccc3cc2CCc2cncc(c2)Nc2ncc(Cl)c(n2)N3)CC1 [Example A245, bis(trifluoroacetate)] | < 6.40
* Cc1noc(C)c1S(=O)(=O)N1CCC(CC(=O)Nc2ccc3cc2CCc2cncc(c2)Nc2ncc(Cl)c(n2)N3)CC1 [Example A231, bis(trifluoroacetate)] | < 6.40

Indicate the recorded pIC50 value for this compound: O=C(CC1CCN(c2cccc(Cl)n2)CC1)Nc1ccc2cc1CCc1cncc(c1)Nc1ncc(Cl)c(n1)N2 [Example A180, tris(trifluoroacetate)]
< 6.70
